Target: human ether-à-go-go-related gene (hERG) potassium channel (human);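 also: peak tail current of the secondary pulse compared with the same well before compound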
Sequence (Q12809 whole entry, looked up): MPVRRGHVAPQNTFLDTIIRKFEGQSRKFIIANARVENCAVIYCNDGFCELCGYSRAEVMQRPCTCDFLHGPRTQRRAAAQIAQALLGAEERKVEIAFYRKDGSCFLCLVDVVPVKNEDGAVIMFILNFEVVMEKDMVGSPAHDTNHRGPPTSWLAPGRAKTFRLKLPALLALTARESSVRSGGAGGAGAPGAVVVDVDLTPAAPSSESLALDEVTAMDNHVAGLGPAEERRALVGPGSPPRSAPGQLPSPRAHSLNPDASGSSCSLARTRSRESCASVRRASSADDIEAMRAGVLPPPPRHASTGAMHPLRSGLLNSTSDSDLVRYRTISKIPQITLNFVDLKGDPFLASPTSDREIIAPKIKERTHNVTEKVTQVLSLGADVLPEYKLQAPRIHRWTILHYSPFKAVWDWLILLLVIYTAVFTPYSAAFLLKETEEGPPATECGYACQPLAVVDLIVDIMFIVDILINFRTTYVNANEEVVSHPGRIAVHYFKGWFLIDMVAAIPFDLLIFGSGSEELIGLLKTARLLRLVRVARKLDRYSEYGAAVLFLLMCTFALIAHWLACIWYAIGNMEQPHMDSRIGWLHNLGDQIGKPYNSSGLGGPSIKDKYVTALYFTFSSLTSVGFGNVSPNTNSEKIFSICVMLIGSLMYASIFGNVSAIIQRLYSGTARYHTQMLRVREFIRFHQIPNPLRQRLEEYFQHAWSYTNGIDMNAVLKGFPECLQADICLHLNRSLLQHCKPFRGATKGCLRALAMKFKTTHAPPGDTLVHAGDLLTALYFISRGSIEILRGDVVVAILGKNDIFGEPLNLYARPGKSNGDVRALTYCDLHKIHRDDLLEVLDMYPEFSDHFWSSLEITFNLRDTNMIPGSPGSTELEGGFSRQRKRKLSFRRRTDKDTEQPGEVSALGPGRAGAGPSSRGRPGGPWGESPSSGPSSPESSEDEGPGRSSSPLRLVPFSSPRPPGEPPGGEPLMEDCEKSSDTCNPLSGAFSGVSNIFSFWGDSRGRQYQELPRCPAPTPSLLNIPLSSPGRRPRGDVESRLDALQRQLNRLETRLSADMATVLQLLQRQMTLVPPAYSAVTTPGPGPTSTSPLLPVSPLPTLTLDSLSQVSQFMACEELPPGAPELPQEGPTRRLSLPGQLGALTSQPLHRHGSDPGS
Assay: primary screen, population patch clamp on CHO cells stably expressing hERG; higher = less effect of the substance
Out of some 310,000 compounds screened, about 14,000 (4.5%) showed an effect of 50% or more. The effect is printed as a negative number. The entries come from a sample that favours strong results as a whole.
Values of hERG current change (%, negative = inhibition) at 10uM greater than or equal to -30% map to Yes; values below map to No.

CCN(C(=O)COC(=O)c1cc([N+](=O)[O-])ccc1N1CCOCC1)c1ccccc1 | No
O=C(NC1CCCCC1)c1cc([N+](=O)[O-])ccc1N1CCOCC1 | Yes
COc1cc(Cl)ccc1OCc1cc(C(=O)NC(C)Cc2cnccn2)no1 (centres unmarked) | No
COc1cccc(OCc2cc(C(=O)N3CCC(c4ccncc4)CC3)no2)c1 | No
Nc1cc(=O)[nH]c(SCc2csc(-c3ccccc3)n2)n1 | Yes

# input Does "O=C(c1cc(COc2cccc(C(F)(F)F)c2)on1)N1CCC(Oc2cccnc2)CC1" have a reported hERG current change (%, negative = inhibition) at 10uM of at least -30%?
# output No
